- procedure.summary: pKa of couplers, spectrophotometric method
- Assay type: physicochemical
- stated.conditions: spectrophotometric method (no asterisk); 2-butoxyethanol and water (30:70)
Each entry below lists one item and its recorded pKa value.
// no unit string in output, number only

INSERT INTO assay_data (compound, numeric_value) VALUES
  ('CCCCCCCCCCCCCCCCCCS(=O)(=O)CC(C)c1n[nH]c2c(Cl)c(C)nn12 (centres unmarked) [M-3]', 8.99);

Problem: Which pKa is reported for this compound? CCCCCCCCC(CCCCCC)CS(=O)(=O)CCc1nn2c(C)n[nH]c2c1Cl (centres unmarked) [M-9]
Result: 9.18

Problem: Which pKa is reported for this compound? CCCCOc1ccc(C(C)(C)CC(C)(C)C)cc1Sc1c(SCC)nn2c(CCNC(=O)C(CCCC)Oc3ccc(C(C)(C)CC)cc3C(C)(C)CC)n[nH]c12 (centres unmarked) [M-49]
Result: 9.43

Problem: Which pKa is reported for this compound? CCCCOc1ccc(NS(=O)(=O)c2cc(C(C)(C)CC(C)(C)C)ccc2OCCCC)cc1S(=O)(=O)Nc1ccc(CCCc2n[nH]c3c(Cl)c(C(C)(C)C)nn23)cc1 [M-44]
Result: 10.80

Problem: Which pKa is reported for this compound? CCCCOc1ccc(C(C)(C)CC(C)(C)C)cc1S(=O)(=O)CCCc1n[nH]c2c(Cl)c(C(C)(C)C)nn12 [M-33]
Result: 10.39

Problem: Which pKa is reported for this compound? CCC(C)(C)c1ccc(OCCCC(=O)Nc2ccc(Cl)c(NC(=O)C(Oc3ccc(S(=O)(=O)c4ccc(OCc5ccccc5)cc4)cc3)C(=O)C(C)(C)C)c2)c(C(C)(C)CC)c1 (centres unmarked) [Y-8]
Result: 8.60
